assay: log P (octanol/water partition coefficient) by HPLC method of Leahy, Taylor and Wait; type: physicochemical; details: octanol in conjunction with water
What chromatographic logP was measured for each of the following?
Numbers only.

The examples below pair each entry with its known result.
Looking up `CCCCCCCCCC(=O)C1=CN(C(C)(C)C)CCC1(C)C` , I see its chromatographic logP listed as 6.9

Sample `CCC(=O)C1=CN(CC(C)C)CCC1(C)C` ; chromatographic logP observed: 3.2

Just so you know, measured chromatographic logP for `CCCCCCCC(=O)C1=CN(CCCCCCC)CCC1(C)C` came out at 7.4

The compound identified as `CCCCCCCCCC(=O)C1=CN(CC(C)C)CCC1(C)C` registered its chromatographic logP at 6.9

Please go through the list and note chromatographic logP for each compound.
1. CCCC(=O)C1=CN(CC(C)C)CCC1(C)C
2. CCCCCC(=O)C1=CN(C(C)(C)C)CCC1(C)C
3. CCCCCCCC(=O)C1=CN(C(C)C)CCC1(C)C
4. CCCCC(CC)CN1C=C(C(=O)CC)C(C)(C)CC1 (stereo not shown)
5. CCCCCCCCCC(=O)C1=CN(C(C)C)CCC1(C)C
6. CCCCCCCC(=O)C1=CN(CC(C)C)CCC1(C)C

Out:
[3.7, 4.8, 5.3, 5.3, 6.3, 5.8]

---

assay: log P (octanol/water partition coefficient) by HPLC method of Leahy, Taylor and Wait; format: physicochemical; settings: octanol in conjunction with water
Exercise: state measured chromatographic logP for each of the compounds provided.
One number for each entry.

I'm hoping you can list chromatographic logP for every compound here, please.
1. CC(C)CN1C=C(C(=O)CCCCC(=O)C2=CN(CC(C)C)CCC2(C)C)C(C)(C)CC1 [Compound 24]
2. CCCCCCCCCCCC(=O)C1=CN(C)CCC1(C)C [Compound 17]
3. CCCCCCCCCCCCCCCCN1C=C(C(=O)CC)C(C)(C)CC1 [Compound 6]
4. CCCCCCCC(=O)C1=CN(C2CCCCC2)CCC1(C)C [Compound 19]

Out:
9.4
6.3
9.4
6.9

---

assay: E1%: relative UV absorbance of a 1% w/w solution; type: physicochemical; details: relative measure of the UV absorbance of a 1% w/w solution of the compound
Could you please report measured E1% for the items listed next?
Answers are plain numbers.

GET /value?item= `CC(C)CN1C=C(C(=O)C(F)(F)F)C(C)(C)CC1` &field=E1% returns 112

In plain terms, CCCCC(CC)CN1C=C(C(=O)CC)C(C)(C)CC1 (stereo not drawn) has a documented E1% of 105

Your task in this section: give E1% for each listed record.
1. CCCCCCCCCC(=O)C1=CN(CCC)CCC1(C)C
2. CC(C)CN1C=C(C(=O)CCCCC(=O)C2=CN(CC(C)C)CCC2(C)C)C(C)(C)CC1
3. CCCCCCCCCCCCCC(=O)C1=CN(C)CCC1(C)C
4. CCCCCC(=O)C1=CN(C(C)(C)C)CCC1(C)C
5. CCCCC(CC)COC(=O)CCC(=O)C1=CN(CC)CCC1(C)C (stereo not drawn)
6. CCCCCCCC(=O)C1=CN(CC(C)C)CCC1(C)C
7. CCCCCCCC(=O)C1=CN(C(C)(C)C)CCC1(C)C
8. CCCCCCCCCCN1C=C(C(=O)CC)C(C)(C)CC1

Out:
95
131
87
110
87
100
100
95

Can you give me E1% for all of these, one by one?
1. CCCCCCCCCC(=O)C1=CN(CC)CCC1(C)C
2. CC(=O)C1=CN(CC(C)C)CCC1(C)C

Out:
1. 100
2. 140

Give one value of E1% per listed compound.
1. CCCCCCCCCCCCCCCC(=O)C1=CN(CC)CCC1(C)C
2. CCCCCCCC(=O)C1=CN(CC)CCC1(C)C
3. CCCCCCCC(=O)C1=CN(C2CCCCC2)CCC1(C)C
4. CCC(=O)C1=CN(CC(C)C)CCC1(C)C
5. CCCCCCCC(=O)C1=CN(CCCCCCC)CCC1(C)C
6. CCCC(=O)C1=CN(CC(C)C)CCC1(C)C
7. CCCCCCCCCCCCCCCCN1C=C(C(=O)CC)C(C)(C)CC1
8. CCCCCCCCCCCC(=O)C1=CN(C)CCC1(C)C

Out:
[77, 110, 91, 131, 87, 124, 75, 95]

# E1% of `CCCCCCCCCC(=O)C1=CN(C(C)(C)C)CCC1(C)C` = 91
